- Test system: TK-10 renal
- METHOD SUMMARY: NCI tumour cell line growth inhibition, 48 h
RECORDED ENDPOINT: GI50

Consider the reported GI50 for these molecules:
MOLECULE	RECORDED ENDPOINT	RESULT
CC(C)CCOc1ccc(-c2n[nH]c(C(F)(F)F)c2-c2cncc(C#N)c2)c(O)c1	GI50	3.15 µM
CC(=O)N1CC(Nc2ccc(OC(F)(F)F)cc2)=CC1=O	GI50	5.85 µM
COc1cccc(C2C(C#N)=C(N)Oc3cc(N)ccc32)c1 (stereo not given)	GI50	2.83 µM
Cc1ccc(C2NC(=S)NC3=C2CCOc2c3ccc3ccccc23)cc1 (stereo not given)	GI50	> 100 µM

# input for lookup
Input: What measured GI50 is associated with O=C(OCc1ccccc1)N1CCN(/[N+]([O-])=N/Oc2ccc([N+](=O)[O-])cc2[N+](=O)[O-])CC1 on TK-10 renal?
Output: 17.6 µM

---

- Test system: HT29 colon
- METHOD SUMMARY: NCI tumour cell line growth inhibition, 48 h; in the data active = GI50 below about 0.43 µM; inactive = the rest
Give one outcome, nothing more. List: active, inactive

Take a look at these entries with their results.
COMPOUND	STUDY SYSTEM	CATEGORY
CCCCCC(O)C1C(=O)OC(C)C(O)/C=C/C=C/C=C/C=C\C=C(\C)C(O)CC(O)CC(O)CC(O)CC(O)CC(O)CC1O (centres undefined)	HT29 colon	inactive
CCOc1ccc([C@@H]2[C@@H](Oc3ccccc3)C(=O)N2c2cc(OC)c(OC)c(OC)c2)cc1	HT29 colon	active
COc1ccc(-c2ccc(/C=N/n3c(COc4ccccc4Cl)nn(CN4CCN(C)CC4)c3=S)o2)c([N+](=O)[O-])c1	HT29 colon	inactive

Input: Could you please tell me the result logged for O=C1OCC(c2cccs2)=C1Cl in this assay?
Output: inactive

Input: Which outcome was assigned to Cc1nc2sccn2c(=O)c1CCN1CCC(=C(c2ccc(F)cc2)c2ccc(F)cc2)CC1 in this test?
Output: inactive

Input: // param item: CN(C)c1ccc(C(=C2C=CC(=[N+](C)C)C=C2)c2ccc(N(C)C)cc2)cc1 (tested in a mixture with another compound) ; yields the recorded call
Output: active

Input: Recorded test outcome, item N#Cc1c(-c2ccc(Cl)cc2)n(O)c2ccccc12
Output: inactive

Input: What outcome does the record of this test show for Cc1cccc(Oc2nccc(-c3c(-c4ccc(F)cc4)ncn3C3CCNCC3)n2)c1C ?
Output: inactive

Input: // outcome(item) with item = C=C1C[C@](OC)([C@H](O)C(=O)N[C@@H](OC)[C@@H]2C[C@@H](O)C(C)(C)[C@@H](C[C@@H](COC)OC)O2)O[C@H](C)[C@@H]1C
Output: active

---

- Test system: SR leukemia
Write down one outcome, taken from True (active), False (inactive)

COMPOUND	CATEGORY
CN(C)c1ccc(N=Cc2c([O-])ccc3ccccc23)cc1.[C-]#[O+].[C-]#[O+].[Ir]	False
CC(=O)Nc1ccc(Sc2ccc([N+](=O)[O-])o2)cc1	False
CC(=O)N1CC(Nc2ccc(OC(F)(F)F)cc2)=CC1=O	False
ClC1=C(Cl)C(Cl)=C(Cl)C1=C/C=C/c1ccccc1	True
O=C1OCC(c2cccs2)=C1Cl	False
CCOC(=O)c1sc2nc3sc(N=Nc4ccc(Cl)cc4)c(O)n3c(=S)c2c1C	False
C(=C\c1n(Cc2ccc3ccccc3c2)c(-c2ccccc2)c(-c2ccccc2)[n+]1Cc1ccc2ccccc2c1)/c1ccccc1	True
COc1cccc(C2C(C#N)=C(N)Oc3cc(N)ccc32)c1 (stereo not given)	True

Input: So what was the verdict on CCC(C)n1cc(C)c2c(C(=O)NCc3c(C)cc(C)[nH]c3=O)cc(Br)cc21 (stereo not given) in this test?
Output: False

Input: Fill in: this test's call for COc1ccc(Nn2c(SCC(=O)Nc3nc(-c4ccc(Cl)cc4)cs3)nc(C)c2C)cc1 is ___
Output: False
